Reference for the values: paper PMC8125615

- SYSTEM_NAME: SARS CoV-2 M^pro (Severe acute respiratory syndrome coronavirus 2)
- TEST: In vitro enzyme inhibition assay (SARS-CoV-2 main protease assay kit, fluorescence)
- Format: biochemical
PARAMETER: pIC50
Scale: pIC50 equals -log10([C]), with [C] in mol/L.

Give reported pIC50 for C=C(C)[C@@H]1CC[C@]2(C(=O)O)CC[C@]3(C)[C@H](CC[C@@H]4[C@@]5(C)CC[C@H](O)C(C)(C)[C@@H]5CC[C@]43C)[C@@H]12 (SARS CoV-2 M^pro (Severe acute respiratory syndrome coronavirus 2))
4.84

----------
- SYSTEM_NAME: SARS CoV-2 M^pro (Severe acute respiratory syndrome coronavirus 2, UniProt P0DTD1)
- TEST: In vitro enzyme inhibition assay (SARS-CoV-2 main protease assay kit, fluorescence)
- Format: biochemical
- SETUP_CONDITIONS: SARS CoV-2 M^pro, fluorescence kit assay, GC376 as reference standard; read-out: IC50
Record form. Attribute: IC50. Fill in for each entry.
Use µM as the unit, but write only the number.

For the compound C[C@H]1[C@H](C)CC[C@]2(C(=O)O)CC[C@]3(C)C(=CC[C@@H]4[C@@]5(C)CC[C@H](O)C(C)(C)[C@@H]5CC[C@]43C)[C@H]12 [ursolic acid] , report IC50.
12.6

For the compound CC1(C)CC[C@]2(C(=O)O)CC[C@]3(C)C(=CC[C@@H]4[C@@]5(C)C[C@@H](O)[C@H](O)C(C)(C)[C@@H]5CC[C@]43C)[C@@H]2C1 [maslinic acid] , give its measured IC50 value.
3.22

Specify measured IC50 for C=C(C)[C@@H]1CC[C@]2(CO)CC[C@]3(C)[C@H](CC[C@@H]4[C@@]5(C)CC[C@H](O)C(C)(C)[C@@H]5CC[C@]43C)[C@@H]12 [betulin] .
89.7
